Protein target, amino acids: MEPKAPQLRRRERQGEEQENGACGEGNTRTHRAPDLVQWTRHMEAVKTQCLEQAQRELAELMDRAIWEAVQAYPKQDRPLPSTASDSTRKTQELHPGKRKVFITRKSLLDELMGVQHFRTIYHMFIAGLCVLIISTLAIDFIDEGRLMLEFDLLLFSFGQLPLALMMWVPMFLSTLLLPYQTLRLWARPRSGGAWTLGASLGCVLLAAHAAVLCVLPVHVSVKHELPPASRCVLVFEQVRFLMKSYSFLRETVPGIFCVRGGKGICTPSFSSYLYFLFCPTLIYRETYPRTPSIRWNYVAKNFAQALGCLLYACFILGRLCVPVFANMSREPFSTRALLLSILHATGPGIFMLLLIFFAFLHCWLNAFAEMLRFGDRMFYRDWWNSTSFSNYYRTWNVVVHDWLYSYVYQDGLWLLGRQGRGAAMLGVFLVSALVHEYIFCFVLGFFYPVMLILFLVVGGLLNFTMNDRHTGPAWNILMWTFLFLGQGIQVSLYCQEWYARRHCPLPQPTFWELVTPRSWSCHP
MEASURE NAME: IC50 (nM)

>  <MOLECULE>
CCCCCCCN(Cc1ccc(OCC(OC)OC)cc1)C(=O)Nc1ccc(OC)cc1OC [Synthetic Example 1]

>  <TEST RESULT>
27

$$$$

Where do the numbers come from? From patent US5422373A.
